assay: Permeability from basolateral to apical side in human Caco2 cells; type: ADME, cell-based; details: Caco-2, read-out: permeability
PROPERTY MEASURED: Papp B→A (×10⁻⁶ cm/s)
Answers are plain numbers, in ×10⁻⁶ cm/s.

Previously resolved entries follow.
COMPOUND STRUCTURE STRING	UNIT SYMBOL	EXPERIMENTAL RESULT
Oc1c2c(nn1-c1nc3ccc(F)cc3s1)CCc1ccccc1-2	×10⁻⁶ cm/s	1.1
Cc1[nH]n(-c2ccccn2)c(=O)c1C(=O)Nc1ccccc1C(F)(F)F	×10⁻⁶ cm/s	14.2

Then this compound:
INPUT: Item under review: `Cc1[nH]n(-c2ccccn2)c(=O)c1C(=O)Nc1ccc([N+](=O)[O-])cc1` . Reported Papp B→A?
OUTPUT: 11.5
